Provenance of the data: ChEMBL document CHEMBL4033759

Biological target: Adenosine receptor A2a (Homo sapiens, UniProt P29274)
Sequence (P29274 whole entry, the tested form may be a part): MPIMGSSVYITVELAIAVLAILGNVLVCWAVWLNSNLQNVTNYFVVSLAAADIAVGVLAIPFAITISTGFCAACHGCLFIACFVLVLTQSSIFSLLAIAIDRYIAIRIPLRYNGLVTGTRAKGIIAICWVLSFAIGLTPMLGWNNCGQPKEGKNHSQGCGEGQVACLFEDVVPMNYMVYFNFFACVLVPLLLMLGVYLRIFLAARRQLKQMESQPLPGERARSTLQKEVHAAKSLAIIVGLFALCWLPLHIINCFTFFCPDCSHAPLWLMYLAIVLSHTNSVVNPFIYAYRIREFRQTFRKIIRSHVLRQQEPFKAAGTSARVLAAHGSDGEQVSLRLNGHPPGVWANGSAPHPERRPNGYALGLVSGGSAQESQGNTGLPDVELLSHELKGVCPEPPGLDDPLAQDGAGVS
Test: Binding affinity to C-terminal 10xHis and 1D4-tagged C-terminal-truncated human A2A adenosine receptor (1 to 316 residues) expressed in Pichia pastoris expression system at 8 nM after 1 hr by fluorescence polarization assay
Conditions: read-out: Kd(app)
measured endpoint: pKd
pKd (log units): -log10 of the concentration in mol/L.

Query: Need pKd of N=c1ccc2c(-c3ccc(C(=O)NCCNC(=O)COc4ccc(CCCn5ncc6c5nc(N)n5nc(-c7ccco7)nc65)cc4)cc3C(=O)O)c3ccc(N)c(S(=O)(=O)O)c3oc-2c1S(=O)(=O)O , thanks.
Result: 7.31
